Hello, the source for this data is patent US20260131016A1, in case you need it.

Could you please report measured IC50 (fold difference) T47D for the items listed next?
# System: T47D cells
# method description: Cell viability (Cell Titer Glo 2.0) in T47D cells, 120 hours
# Type: cell-based
# condition info: NCH3-amide compared to its NH-amide analog (=1)
Answers are plain numbers, in fold difference.

Some entries whose results are on file:
{"columns": ["compound", "IC50 (fold difference) T47D"],
 "data": [
  ["CC[C@H](C)[C@@H]([C@@H](CC(=O)N1CCC[C@H]1[C@H](OC)[C@@H](C)C(=O)NCCc1cccc(N)c1)OC)N(C)C(=O)[C@@H](NC(=O)[C@H](C(C)C)N(C)C)C(C)C [Compound 20]", 1],
  ["CC[C@H](C)[C@@H]([C@@H](CC(=O)N1CCC[C@H]1[C@H](OC)[C@@H](C)C(=O)N(C)CCc1cccc(N)c1)OC)N(C)C(=O)[C@@H](NC(=O)[C@H](C(C)C)N(C)C)C(C)C [Compound 1]", 1.6]
]}

Q: Quote IC50 (fold difference) T47D reported for CC[C@H](C)[C@@H]([C@@H](CC(=O)N1CCC[C@H]1[C@H](OC)[C@@H](C)C(=O)N(C)CCc1ccc(N)cc1)OC)N(C)C(=O)[C@@H](NC(=O)[C@H](C(C)C)N(C)C)C(C)C [Compound 19] please.
A: 6.9

----------
# System: HCC1954 breast ductal carcinoma
# method description: Cell viability (Cell Titer Glo 2.0) in HCC1954, 120 hours
# Assay type: cell-based
# condition info: Trastuzumab conjugate of the numbered linker-payload, HCC1954; read-out: ADC (Trastuzumab) IC50 in HCC1954 assay
Could you please report measured IC50 for the items listed next?

Some entries whose results are on file:
{"columns": ["compound", "IC50"],
 "data": [
  ["CC[C@H](C)[C@@H]([C@@H](CC(=O)N1CCC[C@H]1[C@H](OC)[C@@H](C)C(=O)N(C)CCc1cccc(NC(=O)[C@H](C)NC(=O)[C@H](C)NC(=O)CN2C(=O)C=CC2=O)c1)OC)N(C)C(=O)[C@@H](NC(=O)[C@H](C)N(C)C)C(C)C [Compound 29, 2,2,2-trifluoroacetate]", "< 5 nM"],
  ["CC[C@H](C)[C@@H]([C@@H](CC(=O)N1CCC[C@H]1[C@H](OC)[C@@H](C)C(=O)N(C)CCc1cccc(NC(=O)[C@H](C)NC(=O)[C@H](C)NC(=O)CN2C(=O)C=CC2=O)c1)OC)N(C)C(=O)[C@@H](NC(=O)[C@H]1CCCN1C)C(C)C", "< 5 nM"],
  ["CC[C@H](C)[C@@H]([C@@H](CC(=O)N1CCC[C@H]1[C@H](OC)[C@@H](C)C(=O)N(C)CCc1cccc(NC(=O)[C@H](C)NC(=O)[C@H](C)NC(=O)CN2C(=O)C=CC2=O)c1)OC)N(C)C(=O)[C@@H](NC(=O)C(C)(C)N(C)C)C(C)C [Compound 32, 2,2,2-trifluoroacetate]", "< 5 nM"],
  ["CC[C@H](C)[C@@H]([C@@H](CC(=O)N1CCC[C@H]1[C@H](OC)[C@@H](C)C(=O)N(C)CCc1cccc(NC(=O)[C@H](C)NC(=O)[C@H](C)NC(=O)CN2C(=O)C=CC2=O)c1)OC)N(C)C(=O)[C@@H](NC(=O)CN(C)C)C(C)C", "< 5 nM"],
  ["CC[C@H](C)[C@@H]([C@@H](CC(=O)N1CCC[C@H]1[C@H](OC)[C@@H](C)C(=O)N(C)CCc1cccc(NC(=O)[C@H](C)NC(=O)[C@H](C)NC(=O)CN2C(=O)C=CC2=O)c1)OC)N(C)C(=O)[C@@H](NC(=O)C(C)(C)CN(C)C)C(C)C [Compound 38, 2,2,2-trifluoroacetate]", "> 10 nM"]
]}

Give IC50 for each of the items listed below.
1. CC[C@H](C)[C@@H]([C@@H](CC(=O)N1CCC[C@H]1[C@H](OC)[C@@H](C)C(=O)N(C)CCc1cccc(NC(=O)[C@H](C)NC(=O)[C@H](C)NC(=O)CN2C(=O)C=CC2=O)c1)OC)N(C)C(=O)[C@@H](NC(=O)[C@H](C(C)C)N(C)C)C(C)C [Compound 28, 2,2,2-trifluoroacetate]
2. CC[C@H](C)[C@@H]([C@@H](CC(=O)N1CCC[C@H]1[C@H](OC)[C@@H](C)C(=O)N(C)CCc1cccc(NC(=O)[C@H](C)NC(=O)[C@H](C)NC(=O)CN2C(=O)C=CC2=O)c1)OC)N(C)C(=O)[C@@H](NC(=O)[C@@H](C)N(C)C)C(C)C [Compound 30, 2,2,2-trifluoroacetate]
3. CC[C@H](C)[C@@H]([C@@H](CC(=O)N1CCC[C@H]1[C@H](OC)[C@@H](C)C(=O)N(C)CCc1cccc(NC(=O)[C@H](C)NC(=O)[C@H](C)NC(=O)CN2C(=O)C=CC2=O)c1)OC)N(C)C(=O)[C@@H](NC(=O)C1(N(C)C)CCC1)C(C)C [Compound 33, 2,2,2-trifluoroacetate]

A:
1: < 5 nM; 2: < 5 nM; 3: > 10 nM
